src = the Human Domainome abundance scans (Beltran et al. 2025)

B1: POU domain, class 2, transcription factor 2, residues 200 to 269; numbered along this chain, P09086 (parent)
chain: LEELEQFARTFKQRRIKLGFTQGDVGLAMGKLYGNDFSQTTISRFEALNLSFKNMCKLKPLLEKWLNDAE

Variants of: B1
Assay: abundance fitness (aPCA) (normalised: wild type 0, dead -1); higher = more abundant; growth selection in yeast, the domain comes from the species named
Settings: Homo sapiens
Class assignment keyed on abundance fitness, ranges c1 (below -0.1), c2 (-0.1 to below -0.03), c3 (-0.03 or more)

>>> answer_label("T21G")
"c1"
>>> answer_label("S43H")
"c2"
>>> answer_label("L61G")
"c2"
>>> answer_label("L18C")
"c1"
>>> answer_label("E5L")
"c2"

Bin? Q13M
c3

Bin? K53I
c2

Bin? L32A
c3

Bin? Q22W
c3

Bin? S43Q
c3

Bin? G34R
c1

Bin? R14N
c3

Bin? K12E
c1
